The values you see were collected from patent US20220135687A1.

molecular target: T1, His-tagged PD-L1 ECD protein (ACROBiosystems) (human, UniProt Q9NZQ7 19-238); assay: SPR, supernatant IgG captured, PD-L1-His analyte
T1 construct: Bought protein; also called PD-L1-His; PD-L1/His; not shown: His tag
T1 sequence (Q9NZQ7 19-238): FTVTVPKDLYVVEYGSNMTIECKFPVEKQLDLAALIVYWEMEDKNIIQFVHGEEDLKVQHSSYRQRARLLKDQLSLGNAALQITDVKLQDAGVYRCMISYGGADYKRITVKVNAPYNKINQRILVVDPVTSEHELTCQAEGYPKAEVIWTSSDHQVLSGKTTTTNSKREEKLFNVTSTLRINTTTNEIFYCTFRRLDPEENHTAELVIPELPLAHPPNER
recorded.metric: kon
Respond with a number, then the unit of measure.

Return reported kon; argument: 53C1_VH.M3-VL.M1 (antibody, human IgG1, kappa, N297A, V domains shown, Chimeric mutant (VH N57Q, VL K24R in the entries); human IgG1 effector-less Fc, kappa) VH: QVQLQQSGNELARPGASVRLSCKASGYIFTGYGITWVRQRPGQGLEWIGEIFPRRVQTYYSEKFKGRATLTADISSSTAYMELRSLTSEDSAVYFCARDYDPYFALDYWGQGTSVTVSS VL: DIVMTQSHKFMSTSVGDRVSITCRASQDVSTAVDWYQQKPGQSPKLLIYSASYRYTGVPDRFTGSGSGTAFTFTISGEQAEDLAVYYCQQHYSIPFTFGGGTKLEIKR 260000 M⁻¹ s⁻¹

GET /values?readout=kon&item= 53C1_VH.M3-VL (antibody, human IgG1, kappa, N297A, V domains shown, Chimeric mutant, VH N57Q in the entry; human IgG1 effector-less Fc, kappa) VH: QVQLQQSGNELARPGASVRLSCKASGYIFTGYGITWVRQRPGQGLEWIGEIFPRRVQTYYSEKFKGRATLTADISSSTAYMELRSLTSEDSAVYFCARDYDPYFALDYWGQGTSVTVSS VL: DIVMTQSHKFMSTSVGDRVSITCKASQDVSTAVDWYQQKPGQSPKLLIYSASYRYTGVPDRFTGSGSGTAFTFTISGEQAEDLAVYYCQQHYSIPFTFGGGTKLEIKR 260000 M⁻¹ s⁻¹
